meta.source: patent US5137892A

- System: Micrococcus luteus ATCC 9341
- experiment-description: In Vitro Antibacterial Activity, agar dilution MIC
- Assay type: cell-based
- condition-description: M. luteus ATCC 9341; BHI agar dilution, 20-24 hours; unit assumed
I'd appreciate it if you could supply MIC values values for the items below.
Form entry: value (µg/mL) — number only.

Request: Give its MIC values value. Item: Cl.Cl.NCC1COC2(CCN(c3cc4c(cc3F)c(=O)c(C(=O)O)cn4-c3ccc(F)cc3F)C2)O1 (centres unmarked) [Example 159]
Response: 12.5

Request: Give its MIC values value. Item: CN(C)CC1COC2(CCN(c3nc4c(cc3F)c(=O)c(C(=O)O)cn4-c3ccc(F)cc3F)C2)O1 (centres unmarked) [Example 445]
Response: 12.5

Request: Give its MIC values value. Item: C[C@@H]1COc2c(N3CCC4(CC3)OCCCO4)c(F)cc3c(=O)c(C(=O)O)cn1c23 [Example 330]
Response: 1.56

Request: Give its MIC values value. Item: NC1CN(c2c(F)cc3c(=O)c(C(=O)O)cn(C4CC4)c3c2F)CC12OCCO2 (centres unmarked) [Example 274]
Response: 0.39

Request: Give its MIC values value. Item: O=C(O)c1cn(C2CC2)c2cc(N3CCNCC3)c(F)cc2c1=O [Cipro, Ciprofloxacin, reference compound]
Response: 1.56
